Assay System: Peroxisome proliferator-activated receptor delta (Homo sapiens)
Sequence (Q03181 whole entry): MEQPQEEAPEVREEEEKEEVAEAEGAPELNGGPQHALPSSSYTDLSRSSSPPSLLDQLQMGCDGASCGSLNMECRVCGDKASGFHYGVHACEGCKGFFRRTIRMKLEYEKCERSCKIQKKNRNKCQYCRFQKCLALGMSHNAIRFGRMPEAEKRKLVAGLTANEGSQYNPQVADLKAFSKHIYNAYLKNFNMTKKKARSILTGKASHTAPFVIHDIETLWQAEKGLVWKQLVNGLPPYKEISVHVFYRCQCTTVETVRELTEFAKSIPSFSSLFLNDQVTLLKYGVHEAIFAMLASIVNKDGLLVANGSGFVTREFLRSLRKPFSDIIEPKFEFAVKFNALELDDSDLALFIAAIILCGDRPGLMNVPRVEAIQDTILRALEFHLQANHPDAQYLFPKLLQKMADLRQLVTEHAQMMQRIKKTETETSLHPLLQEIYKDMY
Assay Summary: Agonist activity at human PPARdelta ligand binding domain expressed in monkey COS7 cells cotransfected with Gal4 by luciferase reporter gene assay
Assay type: cell-based, COS-7

Molecule | Assay System | Quantity Unit | EC50
Cc1cc(C2CC2C(OC(=O)c2ccccc2)c2ccc(OC(F)(F)F)cc2)cc(C)c1OC(C)(C)C(=O)O (single isomer, unassigned; diastereomer 2) | Peroxisome proliferator-activated receptor delta (Homo sapiens) | nM | 122
Cc1cc(C2CC2C(OC(=O)c2ccccc2)c2ccc(OC(F)(F)F)cc2)cc(C)c1OC(C)(C)C(=O)O (single isomer, unassigned; diastereomer 1) | Peroxisome proliferator-activated receptor delta (Homo sapiens) | nM | 79

Source listed as ChEMBL document CHEMBL3102755.
